Test: Colorimetric alkylation rate constant assay with thiol N1
Format: physicochemical
Details: Replicate 1; time 606 sec; [B]0 = 250; in µM
readoutLabel: remaining [B]

[[record]]
molecule = "O=C(CCl)Nc1ccccc1 [Compound C2]"
observed = 225.519

[[record]]
molecule = "O=C(CCl)Nc1ccc(F)cc1 [Compound C3]"
observed = 224.236

[[record]]
molecule = "O=C(CCl)N1CCOCC1 [Compound C4]"
observed = 223.296

[[record]]
molecule = "COc1cc2sc(C(=O)CCC(=O)O)cc2cc1NC(=O)CCl [Compound E2]"
observed = 162.506

[[record]]
molecule = "O=C(CCl)Nc1ccccc1C(=O)O [Compound C5]"
observed = 230.535

[[record]]
molecule = "C=CS(=O)(=O)Nc1cc2cc(C(=O)CCC(=O)O)sc2cc1OC [Compound E1]"
observed = 192.345


---

Molecular target: wild-type human STING LBD (hSTINGwt 138-379) (Homo sapiens, UniProt Q86WV6, H232R)
Construct: SUMO (N, cleaved yes); made in house; host or cells: Escherichia coli BL21 (DE3)
Sequence (Q86WV6 138-379 H232R): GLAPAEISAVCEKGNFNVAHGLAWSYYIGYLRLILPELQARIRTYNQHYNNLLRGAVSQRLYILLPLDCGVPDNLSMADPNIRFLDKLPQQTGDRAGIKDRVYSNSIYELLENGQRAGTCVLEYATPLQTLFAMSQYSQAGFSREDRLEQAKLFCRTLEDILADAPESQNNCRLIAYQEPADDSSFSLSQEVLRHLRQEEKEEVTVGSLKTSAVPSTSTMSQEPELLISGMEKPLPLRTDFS
Assay: Isothermal titration calorimetry (ITC), reverse titration
Assay type: binding
Settings: 25 °C, average of duplicate measurements; read-out: Kd hSTINGwt (binding constant, ITC)
pKd: −log10 of the molar value.
readoutLabel: pKd

[[record]]
compound = "COc1cc2sc(C(=O)CCC(=O)O)cc2cc1SCCSc1cc2cc(C(=O)CCC(=O)O)sc2cc1OC [SC2S]"
readoutlabel = "pKd"
observed = 6.75

[[record]]
compound = "COc1cc2sc(C(=O)CCC(=O)O)cc2cc1Sc1cc2cc(C(=O)CCC(=O)O)sc2cc1OC [Compound D1]"
readoutlabel = "pKd"
observed = 7.19

[[record]]
compound = "COc1cc2sc(C(=O)CCC(=O)O)cc2cc1CSCc1cc2cc(C(=O)CCC(=O)O)sc2cc1OC [Compound D7]"
readoutlabel = "pKd"
observed = 7.92

[[record]]
compound = "COc1cc2sc(C(=O)CCC(=O)O)cc2cc1CSc1cc2cc(C(=O)CCC(=O)O)sc2cc1OC [Compound D2]"
readoutlabel = "pKd"
observed = 7.34

[[record]]
compound = "COc1cc2sc(C(=O)CCC(=O)O)cc2cc1SCSc1cc2cc(C(=O)CCC(=O)O)sc2cc1OC [Compound D5]"
readoutlabel = "pKd"
observed = 7.49


---

Assay: LC–MS/MS analysis of in situ SC2S formation (tissue distribution)
Format: in vivo, BALB/c mice
Conditions: BALB/c, mouse, tumour, 4h; read-out: Tumour Mean concentration
readoutLabel: concentration at 4 h (ng/g)

[[record]]
smilestext = "COc1cc2sc(C(=O)CCC(=O)O)cc2cc1SCCSc1cc2cc(C(=O)CCC(=O)O)sc2cc1OC"
valueunit = "ng/g"
observed = 60.7


---

Each item that follows carries a reported remaining [B].
Experiment: Colorimetric alkylation rate constant assay with TNB^2− as non-specific thiol
Format: physicochemical
Settings: Replicate 1, 2349 sec, [B]0 = 250; in µM
readoutLabel: remaining [B]

[[record]]
compound = "O=C(CCl)Nc1ccccc1C(=O)O"
readoutlabel = "remaining [B]"
observed = 245.553

[[record]]
compound = "O=C(CCl)Nc1ccc(F)cc1"
readoutlabel = "remaining [B]"
observed = 241.552

[[record]]
compound = "COc1cc2sc(C(=O)CCC(=O)O)cc2cc1NC(=O)CCl [Compound E2]"
readoutlabel = "remaining [B]"
observed = 240.752

[[record]]
compound = "O=C(CCl)N1CCOCC1"
readoutlabel = "remaining [B]"
observed = 237.085

[[record]]
compound = "O=C(CCl)Nc1ccccc1"
readoutlabel = "remaining [B]"
observed = 240.884

[[record]]
compound = "C=CS(=O)(=O)Nc1cc2cc(C(=O)CCC(=O)O)sc2cc1OC [Compound E1]"
readoutlabel = "remaining [B]"
observed = 242.9

